Here the recorded abundance fitness is given for each entry.
B1: Ventral anterior homeobox 1, residues 102 to 157; numbered along this chain, Q5SQQ9 (parent)
chain: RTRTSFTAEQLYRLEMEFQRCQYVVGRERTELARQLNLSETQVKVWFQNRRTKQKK

Variants of: B1
Experiment: abundance fitness (aPCA) (normalised: wild type 0, dead -1); higher = more abundant; growth selection in yeast, the domain comes from the species named
Conditions: Homo sapiens
The answer should be written as a number, with no unit following it.

Example variants with recorded abundance fitness:
mutationNotation	abundance fitness
R1I	0.024
Y23I	-0.117
R13T	-0.113
N37D	-0.049

Incoming: Need abundance fitness, item Q54F
Outgoing: -0.284

Incoming: And what about the variant R20Q ?
Outgoing: -0.226

Incoming: And what about the variant E15W ?
Outgoing: -0.71

Incoming: And what about the variant F47K ?
Outgoing: -0.885

Incoming: And what about the variant R50N ?
Outgoing: -0.424

Incoming: And what about the variant L36V ?
Outgoing: -0.173

Incoming: And what about the variant Q48L ?
Outgoing: -0.051

Incoming: And what about the variant E17C ?
Outgoing: -0.209

Incoming: And what about the variant L38D ?
Outgoing: -0.818

Cited source for all entries: the Human Domainome abundance scans (Beltran et al. 2025)
